# assayed system: T1, human VPAC2 receptor (human, UniProt P41587 24-438)
# T1 sequence (looked up): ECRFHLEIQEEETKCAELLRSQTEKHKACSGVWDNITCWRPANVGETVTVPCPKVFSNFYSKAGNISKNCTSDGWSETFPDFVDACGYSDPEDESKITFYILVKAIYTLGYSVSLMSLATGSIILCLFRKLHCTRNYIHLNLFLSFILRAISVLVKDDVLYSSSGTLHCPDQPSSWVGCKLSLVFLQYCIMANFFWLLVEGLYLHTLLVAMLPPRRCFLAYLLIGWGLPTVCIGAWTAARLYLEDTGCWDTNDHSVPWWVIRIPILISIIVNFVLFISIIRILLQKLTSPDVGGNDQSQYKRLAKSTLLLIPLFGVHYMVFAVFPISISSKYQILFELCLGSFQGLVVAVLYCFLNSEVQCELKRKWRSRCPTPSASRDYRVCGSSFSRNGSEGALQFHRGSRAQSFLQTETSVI
# protocol description: cell-based or functional assay
Square brackets hold non-standard residues; d marks the D form. Ends that are not written are not given here. * marks the point of attachment. Orn = NCCC[C@H](N)C(=O)O; Hexanoyl = CCCCCC(=O)*; Aib = CC(C)(N)C(=O)O
Simple rule here: Human VPAC2 Receptor: Alpha Screen (EC50; nM), cAMP generation less than 0.3 nM is true, otherwise false.

binder	category label
Hexanoyl-HSDAVFTDNYT[Orn]LLAKLALQKYLQSI[Orn]N[Orn]GGPSSGAPPPS [VPAC2 receptor peptide agonist P371]	true
HSDAVFTDNYTXLRXQVAAXSYLQSIXNXGGPSSGAPPPS (N-terminal hexanoyl (C6); Orn at 12, 27 and 29; Aib at 15 and 20) [VPAC2 receptor peptide agonist P386]	false
HSDAVFTDQYTXLRXQVAAXXYLQSIXXGGPSSGAPPPS (N-terminal hexanoyl (C6); Orn at 12, 21, 27 and 28; Aib at 15 and 20) [VPAC2 receptor peptide agonist P396]	true
HSDAVFTDNYTXLRXQVAAXXYLQSIXXGGPSSGAPPPS (N-terminal hexanoyl (C6); Orn at 12, 21, 27 and 28; Aib at 15 and 20) [VPAC2 receptor peptide agonist P397]	true
HSEAVFTEQYTXLRXQLAAXXYLQSIXXGGPSSGAPPPS (N-terminal hexanoyl (C6); Tyr(OMe) at 10; Orn at 12, 21, 27 and 28; Aib at 15 and 20) [VPAC2 receptor peptide agonist P393]	false
Hexanoyl-HSEAVFTENYT[Orn]LR[Aib]QVAA[Aib]KYLQSI[Orn]N[Orn]GGPSSGAPPPS [VPAC2 receptor peptide agonist P362]	false
HSDAVFTDNYTXLRXQVAAXKYLQSIKNKRYGGPSSGAPPPS (N-terminal hexanoyl (C6); hR (homoarginine) at 12; Aib at 15 and 20) [VPAC2 receptor peptide agonist P343]	true
